experimental endpoint: melting point

Examples with answers:
chem_smiles=O=c1cc(I)cnn1Cc1ccccc1 result="156 to 158 °C"
chem_smiles=Fc1ccc(-c2cnc(CBr)o2)cc1 result="30 to 41 °C"
chem_smiles=CCOc1ccc(NS(=O)(=O)c2ccc(C)c(N)c2)cc1 result="116 to 118 °C"
chem_smiles=O=c1[nH]c2c(Br)cccc2c(=O)o1 result="169 to 171 °C"
chem_smiles=O=C(O)CC1(CO)CC1 result="68 to 70 °C"
chem_smiles=O=C(CCl)Nc1cc([N+](=O)[O-])ccc1F result="125 to 127 °C"

Turning now to a further record.
Challenge: Look up melting point: Cc1cc(Cl)n(-c2ccc(C#N)cc2)n1
Response given: 103 to 105 °C
